Data provenance is PubChem BioAssay (NCATS).

- Tested on: DIV30
- protocol_description: qHTS profiling for inhibitors of Plasmodium falciparum proliferation (AID 504749); note: nearly all actives have a fitted effect of over 60% in size
- study_conditions: P. falciparum in erythrocytes, SYBR Green DNA, 72 h; series mostly up to 28.7 µM
Inconclusive results are not listed. Calls of active or inactive are those of the source. Calls come from the whole dose curve; as a rule, active = well fitted inhibition curve with a large enough effect; inconclusive = small, poorly fitted or top-dose-only effect; inactive = flat fitted curve, though single readings scatter.
Outcome codes: T = active, F = inactive

| compound | label |
| --- | --- |
| O=C(NNCS(=O)(=O)O)c1ccncc1 | F |
| Nc1nccs1 | F |
| Nc1ccc(N=Nc2ccccc2)c(N)n1 | F |
| COc1ccc(/C=C/C(=O)O)cc1 | F |
| CC(=O)Nc1c(I)c(C(=O)O)c(I)c(N(C)C(C)=O)c1I | F |
| CO/N=C(/C(=O)N[C@@H]1C(=O)N2C(C(=O)O)=C(COC(N)=O)CS[C@H]12)c1ccco1 | F |
| CN(CCO)CC(O)Cn1cnc2c1c(=O)n(C)c(=O)n2C (stereo unspecified) (tested in a mixture with another compound) | F |
| CC(=O)NCCCS(=O)(=O)O | F |
| OCC(O)CO | F |
| c1ccc2ccccc2c1 | F |
| O=C(O)COc1ccc(CCNS(=O)(=O)c2ccccc2)s1 | F |
| CCc1ccc(S(=O)(=O)O)cc1 | F |
| CC(C)c1ncc([N+](=O)[O-])n1C | F |
| O=C1c2ccccc2CN2C(=O)c3ccccc3CN12 | F |
| COc1ccc(/C=C/C(=O)OCCC(C)C)cc1 | F |
| CC(C)=CCC/C(C)=C/CC/C(C)=C/CC/C=C(\C)CC/C=C(\C)CCC=C(C)C | F |
| CC1=C(/C=C/C(C)=C/C=C/C(C)=C/C(=O)Oc2c(C)c(C)c3c(c2C)CC[C@@](C)(CCC[C@H](C)CCC[C@H](C)CCCC(C)C)O3)C(C)(C)CCC1 | F |
| FC(F)(F)COCC(F)(F)F | F |
| FC(F)OC(Cl)C(F)(F)F (stereo unspecified) | F |
| C/C=C/C=C/C(=O)O | F |
| C=C1C(CCl)(CCl)C2(Cl)C(Cl)C(Cl)C1(Cl)C2(Cl)Cl (stereo unspecified) | T |
| Cc1cc(=O)c(C(=O)N[C@@H](C(=O)N[C@@H]2C(=O)N3C(C(=O)O)=C(CSc4nnnn4C)CS[C@H]23)c2ccc(O)cc2)c[nH]1 | F |
| C[C@@](Cc1ccc(O)c(O)c1)(NN)C(=O)O | F |
| CCOc1ccc(S(=O)(=O)O)c2cccnc12 | F |
| CCCCC(CC)COS(=O)(=O)O (stereo unspecified) | F |
| O[C@@H]([C@H](O)[C@H](O)CBr)[C@H](O)CBr | F |

###

- protocol_description: qHTS of pediatric cancer cell lines to identify multiple opportunities for drug repurposing: Primary screen for BT-37 cells (AID 1347094)
- study_conditions: BT-37 viability, CellTiter-Glo luminescence, 48 h; series mostly up to 57.3 µM
Records with an inconclusive call do not appear. Activity calls are given as the source filed them. Calls follow the shape of the dose curve; as a rule, active = well fitted cell-killing curve with a large enough effect; inconclusive = small, poorly fitted or top-dose-only effect; inactive = flat fitted curve, though single readings scatter.
Outcomes: yes (1) (active), no (0) (inactive)

| compound_structure | label |
| --- | --- |
| Oc1ccc(/C=C/c2cc(O)cc(O)c2)cc1 | yes (1) |
| O=C(OCc1ccccc1)c1ccc(O)cc1 | no (0) |
| CN(C)CCCSc1ccccc1NC(=O)/C=C/c1ccccc1 | no (0) |
| Nc1ccc(N=Nc2ccccc2)c(N)n1 | no (0) |
| CC(=O)Oc1cccc2c1C(=O)c1c(OC(C)=O)cc(C(=O)O)cc1C2=O | no (0) |

###

- target: Rap guanine nucleotide exchange factor 4 (Homo sapiens) (UniProt Q8WZA2)
- Sequence (Q8WZA2 whole entry, looked up): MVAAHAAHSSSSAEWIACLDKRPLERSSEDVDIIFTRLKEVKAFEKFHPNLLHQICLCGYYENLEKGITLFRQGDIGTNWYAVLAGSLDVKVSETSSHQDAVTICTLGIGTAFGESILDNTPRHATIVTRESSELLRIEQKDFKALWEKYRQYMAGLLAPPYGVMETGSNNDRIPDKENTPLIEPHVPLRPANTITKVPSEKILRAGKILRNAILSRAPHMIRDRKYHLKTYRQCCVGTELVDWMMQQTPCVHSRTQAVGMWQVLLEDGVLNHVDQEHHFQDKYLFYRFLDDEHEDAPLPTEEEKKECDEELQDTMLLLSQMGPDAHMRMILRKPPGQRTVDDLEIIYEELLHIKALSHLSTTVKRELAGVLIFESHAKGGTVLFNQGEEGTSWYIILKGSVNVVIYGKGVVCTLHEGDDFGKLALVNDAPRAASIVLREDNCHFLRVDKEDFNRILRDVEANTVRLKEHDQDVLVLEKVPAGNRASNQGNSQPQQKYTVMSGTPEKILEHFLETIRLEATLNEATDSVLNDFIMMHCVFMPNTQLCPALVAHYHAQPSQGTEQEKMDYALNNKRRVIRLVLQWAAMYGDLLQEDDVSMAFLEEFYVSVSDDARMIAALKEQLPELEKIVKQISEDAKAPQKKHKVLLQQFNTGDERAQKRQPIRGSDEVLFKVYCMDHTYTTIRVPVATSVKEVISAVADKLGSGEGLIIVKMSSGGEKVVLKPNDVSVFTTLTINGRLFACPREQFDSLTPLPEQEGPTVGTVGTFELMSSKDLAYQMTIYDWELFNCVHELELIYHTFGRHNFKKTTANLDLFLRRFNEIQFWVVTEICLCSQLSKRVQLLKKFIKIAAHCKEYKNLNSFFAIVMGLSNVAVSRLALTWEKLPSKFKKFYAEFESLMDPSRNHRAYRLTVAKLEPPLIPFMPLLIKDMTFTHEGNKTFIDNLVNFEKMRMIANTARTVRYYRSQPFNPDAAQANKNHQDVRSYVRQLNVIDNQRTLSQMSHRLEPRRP
- protocol_description: Confirmatory qHTS for agonist of cAMP-regulated guanine nucleotide exchange factor 4 (EPAC2) (AID 1645884);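 note: nucleotide exchange releases bodipy-GDP from Rap1 and this lowers its fluorescence; % is set by controls: 0 for no effect and ±100 for the full control effect; nearly all actives have a fitted effect of over 65% in size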
- study_conditions: EPAC2 GEF activity, Rap1B-BODIPY-GDP fluorescence, percent relative to cAMP agonist control; series mostly up to 154 µM
Records with an inconclusive call do not appear. Active and inactive are the calls of the source. The call rests on the fitted dose curve; in most records, active means well fitted activation curve with a large enough effect; inconclusive means small, poorly fitted or top-dose-only effect; inactive means no such curve, though single readings can be large or run the other way.

| compound | outcome |
| --- | --- |
| O=C(O)c1cc(N=Nc2ccc(O)c(C(=O)O)c2)ccc1O | inactive |
| CCCCC(=O)O[C@H]1CC[C@H]2[C@@H]3CCc4cc(O)ccc4[C@H]3CC[C@]12C | inactive |
| COc1cc(NCCCC(C)N)c2ncccc2c1 (stereo not drawn) | inactive |
| C=CC[C@@H]1/C=C(\C)C[C@H](C)C[C@H](OC)[C@H]2O[C@@](O)(C(=O)C(=O)N3CCCC[C@H]3C(=O)O[C@H](/C(C)=C/[C@@H]3CC[C@@H](O)[C@H](OC)C3)[C@H](C)[C@@H](O)CC1=O)[C@H](C)C[C@@H]2OC | inactive |
| COc1ccc(/C=C/C(=O)O)cc1 | inactive |
| C=CC(C)(O)CC/C=C(\C)CCC=C(C)C (stereo not drawn) | inactive |
| Oc1ccc(/C=C/c2cc(O)cc(O)c2)cc1 | inactive |
| CSc1nc2cc(Oc3cccc(Cl)c3Cl)c(Cl)cc2[nH]1 | inactive |

###

- target: Luciferin 4-monooxygenase (Photinus pyralis) (UniProt P08659)
- protocol_description: Primary firefly luciferase (FLuc) qHTS assay for identification of artifact compounds. (AID 1845220); note: nearly all actives have a fitted effect of over 60% in size
- study_conditions: purified firefly luciferase, luminescence, 5 min; at 54.1 µM (top of the series); series mostly up to 54.1 µM
Active and inactive are the calls of the source. Calls come from the whole dose curve; as a rule, active = well fitted inhibition curve with a large enough effect; inconclusive = small, poorly fitted or top-dose-only effect; inactive = flat fitted curve, though single readings scatter.
readout_label: outcome

| compound | reported_result |
| --- | --- |
| C=C1[C@H](CO)[C@@H](O)C[C@@H]1n1cnc2c(=O)[nH]c(N)nc21 | inactive |
| C=C1CC[C@H](O)CC1=C/C=C1\CCC[C@]2(C)[C@@H]([C@H](C)/C=C/[C@H](C)C(C)C)CC[C@@H]12 | inactive |
| CC(C)(C)c1ccc(CN2CCN(C(c3ccccc3)c3ccc(Cl)cc3)CC2)cc1 (stereo not drawn) | inactive |

###

- protocol_description: Drug repurposing screens with cells derived from glioblastoma tumor samples (AID 1345199); note: % is set by controls: 0 for no effect and ±100 for the full control effect; nearly all actives have a fitted effect of over 40% in size
- study_conditions: GBM patient neurospheres viability, ATP luminescence, 48 h; at 45.9 µM (top of the series); tumour line D
- Method: CD133+ cells were isolated from GBM patient biopsies and cultured as neurospheres. Neurospheres from four patients were used to screen the NCATS pharmaceutical collection (NPC) library of approved drugs and bioactive compounds. […] The neurospheres were incubated with drugs for 48 hours in 1536-well format, then assayed with an ATP content cell viability assay. […]
Results filed as inconclusive are left out.
The entries below come with measured activity, negative = cell killing values attached.
readout_label: activity, negative = cell killing (%)

| compound | readout_label | result_units | reported_result |
| --- | --- | --- | --- |
| C[C@@H]1O[C@@H](OC[C@H]2O[C@@H](Oc3c(-c4ccc(OCCO)c(OCCO)c4)oc4cc(OCCO)cc(O)c4c3=O)[C@H](O)[C@@H](O)[C@@H]2O)[C@H](O)[C@H](O)[C@H]1O | activity, negative = cell killing | % | -14.3 |
| N[C@H](CC(=O)O)C(=O)O | activity, negative = cell killing | % | 11.3 |
| O=C(CO)[C@@H](O)[C@H](O)[C@@H](O)C(=O)O | activity, negative = cell killing | % | -4.84 |
| CCC(Cc1c(I)cc(I)c(O)c1I)C(=O)O (stereo unspecified) | activity, negative = cell killing | % | -2.81 |
| Oc1cccc(O)c1O | activity, negative = cell killing | % | 2.75 |
| NC(N)=NCC1COc2ccccc2O1 (stereo unspecified) | activity, negative = cell killing | % | -28.1 |
| CCCCCCCCCCCCCC(=O)OCC(COP(=O)([O-])OCC[N+](C)(C)C)OC(=O)CCCCCCCCCCCCC (stereo unspecified) | activity, negative = cell killing | % | 3.06 |
| [O-][N+](=Nc1ccccc1)c1ccccc1 | activity, negative = cell killing | % | -9.27 |
| C[C@H](N)C(=O)N[C@@H](C)P(=O)(O)O | activity, negative = cell killing | % | -11.2 |
| CCOc1ccc(NC(=S)Nc2ccc(OCC)cc2)cc1 | activity, negative = cell killing | % | -11.1 |
| Cc1ncc(C[n+]2csc(CCOP(=O)(O)O)c2C)c(N)n1 | activity, negative = cell killing | % | -1.97 |

###

The following compounds are listed with their measured Potency values.
- protocol_description: qHTS profiling for inhibitors of Plasmodium falciparum proliferation (AID 504749); note: nearly all actives have a fitted effect of over 60% in size; note: potency is the fitted concentration of half-maximal effect
- study_conditions: P. falciparum in erythrocytes, SYBR Green DNA, 72 h; parasite line B
Records with an inconclusive call do not appear. Active and inactive are the calls of the source. Calls follow the shape of the dose curve; as a rule, active = well fitted inhibition curve with a large enough effect; inconclusive = small, poorly fitted or top-dose-only effect; inactive = flat fitted curve, though single readings scatter.

| compound | Potency |
| --- | --- |
| C=CC[C@@H]1/C=C(\C)C[C@H](C)C[C@H](OC)[C@H]2O[C@@](O)(C(=O)C(=O)N3CCCC[C@H]3C(=O)O[C@H](/C(C)=C/[C@@H]3CC[C@@H](O)[C@H](OC)C3)[C@H](C)[C@@H](O)CC1=O)[C@H](C)C[C@@H]2OC | 1260 nM (active) |
| Cn1cc(NC(=O)c2cc(NC(=O)c3cc(NC=O)cn3C)cn2C)cc1C(=O)NCCC(=N)N | 11200 nM (active) |
| CCN(CC)CCCC(C)Nc1cc(/C=C/c2ccccc2Cl)nc2cc(Cl)ccc12 (stereo not given) | 2000 nM (active) |
| CCOC(=O)c1c[nH]c2cc(OCC(C)C)c(OCC(C)C)cc2c1=O | 56.2 nM (active) |
| O.O.O.O.O.O.O.O=S(=O)([O-])[O-].[Co+2] | 8910 nM (active) |
